experiment: amyloid nucleation score (Sup35N fusion, yeast selection) (log enrichment); library NNK3; higher = more nucleation; inactive = no reads after selection;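 note: zero at mode of non-aggregating sequences after 7 days selection at 30°C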
Quantity kind: amyloid nucleation score

Worked cases, answers included:
Residue sequence	Value measured
CNLALFTRGWGEYMIVSCCK	inactive
WKYGKLISPFVQDVVSLSIK	inactive
SFKSTSYIITFNWKIVAVWK	inactive
SFLARVFT	inactive
ITGHRNVLIEHMVTTP	inactive
SQACNHLVADRSTIGELSRM	inactive
EFSYISVCRLQLLMHTKIWD	1.43
TSQTLESQDLIFSGCHSGWL	inactive

Fill in the blank: the reported amyloid nucleation score of `QSSKDTWRCASDKYERSGKR` is ____.
inactive

Which amyloid nucleation score value is on record for `ISTLSVSLS` ?
-0.258

amyloid nucleation score lookup needed for `AHRFITMSLERVSTYRGLYV` , thanks.
inactive

What does the data say about its amyloid nucleation score? Entry: `YFRYRSDVIAYISVIIGNLV`
inactive

Fill in the blank: the reported amyloid nucleation score of `LPCPACKVLNDKNSSKCENY` is ____.
inactive

---

assay: amyloid nucleation score (Sup35N fusion, yeast selection) (log enrichment); library NNK3; higher = more nucleation; inactive = no reads after selection
Quantity kind: amyloid nucleation score

Solved entries (count: 5):
Residue sequence	amyloid nucleation score
GIVSYCICIFGNFQK	2.64
SNASIYRSFWWGKYSRA	-0.619
MWCMGNSVGSVWSRCTYMRY	inactive
GVIWSMWIASL	inactive
LLEIDVGISRCLGVTSETFW	inactive

Suppose we examine the sequence `MSRGGYWSKVR` ; what amyloid nucleation score value has been reported?
inactive

Query (sequence): `HINDAYTCVMLYMGLTRWTI` ; field requested: amyloid nucleation score
inactive

Any idea what its amyloid nucleation score is? The sequence is `NQWIAICNPSPFRVLTAHI`
inactive

So what does the record say about amyloid nucleation score for `MMELQVAQLHTEGDRLKSRR` ?
-0.787

---

assay: amyloid nucleation score (Sup35N fusion, yeast selection) (log enrichment); library NNK3; higher = more nucleation; inactive = no reads after selection
Quantity kind: amyloid nucleation score

Answered cases to consult:
Substance	Value measured
FIKHVRIKFTWSVSREF	inactive
LEYLKV	inactive
NLVRFLLKFMVKEYLRFTYI	inactive
TTSLSIGGLIFRLVL	inactive
KLFSYRRRPNINCLG	inactive

Returns the measured amyloid nucleation score for the input substance. Input: `TCAPMTITFSCHNNLFKC`
2.65

Item `AKTSADYTYVASRTDFGCVN` has what recorded amyloid nucleation score?
inactive

Quick one: amyloid nucleation score for `MPYSFIMTVTYSLQYTQWSL` ?
-0.074

Request the reported amyloid nucleation score associated with `SMKEVLMTSGTSNVITSGGD`
inactive

Query (substance): `VLTVYDCGLEQPW` ; field requested: amyloid nucleation score
inactive

May I ask what amyloid nucleation score has been recorded for `FNKLEVRNRQEWLSGRFWDH` ?
-0.091

Look up amyloid nucleation score: `HYKKYITPVQRVGCADPSHC`
inactive

Can you share its amyloid nucleation score? I mean this substance: `ILKVVWYNSPEG`
0.898

Which amyloid nucleation score is reported for this substance? `WAYLWLSKNSYGR`
inactive

Consider the substance `FKYLWADREVNVGQKHSVIG` and give its measured amyloid nucleation score.
-0.174

Quick one: amyloid nucleation score for `CLFSHYLV` ?
inactive

Consider the substance `VLCSVFIFFLRGFDS` and give its measured amyloid nucleation score.
2.3

Bench note: what amyloid nucleation score did `AYRLTLCLPSWVWL` show?
inactive

---

experiment: amyloid nucleation score (Sup35N fusion, yeast selection) (log enrichment); library NNK3; higher = more nucleation; inactive = no reads after selection
Quantity kind: amyloid nucleation score

Known amyloid nucleation score results, listed for orientation:
Substance	Value measured
LRTLALPSSVFVRDVHYY	0.987
MMGTSWDWRYRYLRLRGEEC	inactive
RLYYRLQTKQAVWCNHPAPT	inactive
YVNVYGSQMVYSKSQGHFPD	inactive
GKWKIKQ	inactive

Field request: amyloid nucleation score | item: `IPVFMLLMYRVSMMDSSSKS`
inactive

Record request: amyloid nucleation score value, item `CGVYPYPWVVMFTDCKMNRW`
inactive

# input substance: `NITPRQMWVRWRQCMMGTGL` ; wanted: its amyloid nucleation score
inactive

Please report the recorded amyloid nucleation score for `CFLSGWTLTVSVLLVDYRKL` .
inactive

Which value of amyloid nucleation score has been reported for `CLLYSYCCPRKIVN` in the records?
inactive

What value of amyloid nucleation score has been recorded for this entry: `TFFLYVKIRVALNIRVPGVR`
inactive

Given the entry `EYLPEQPVCIVMSYTPKFPC` , report its measured amyloid nucleation score.
inactive

Return reported amyloid nucleation score; argument: `FYTIGWGWNQKCGIFRHMVR`
inactive

What value of measured amyloid nucleation score is listed for `SEFCSNFNQFGC` ?
inactive

For `MVGFLDTFSRIAVRCSIDRW` , what is its reported amyloid nucleation score?
-0.344

If you can, please state the reported amyloid nucleation score value of `DAFRSSYWIICMTEAHLYKF` .
inactive

Given `TSKRSYVSTGYTNWFTFRI` , state its recorded amyloid nucleation score.
inactive

---

test: amyloid nucleation score (Sup35N fusion, yeast selection) (log enrichment); library NNK2; higher = more nucleation; inactive = no reads after selection
amyloid nucleation score of 0.8 or higher: Y. Under 0.8: N.

Substance	Category
CMQLSYSYSLTFEGQCHLVG	Y
LPTFSPQ	Y
RWDCGGGTNCSGENIWQGET	N
SRYFVVAGRSLNTCVNMCCV	Y
SEVHSWANGKVLTLYSRMWL	Y

For this substance, is measured amyloid nucleation score 0.8 or higher? `CNKTLLFIFPVLGQQDGDFG`
Y

For this substance, is measured amyloid nucleation score 0.8 or higher? `SIYFKVIATTSVYRLMPTVW`
N

Textbook exercise: given the entry `AGSQVVVMVIGVSTWAVVDG` , state whether its amyloid nucleation score is greater than or equal to 0.8.
Y

Hi team, for `ASGSKDACGCATSCV` , is the recorded amyloid nucleation score at or above 0.8?
Y

Tell me whether amyloid nucleation score is at least 0.8 here: `YLGCRDPTRCFLLVHVPDLY`
N

Does the reported amyloid nucleation score for `IAIPSDF` fall at or above the 0.8 mark?
N

---

experiment: amyloid nucleation score (Sup35N fusion, yeast selection) (log enrichment); library NNK2; higher = more nucleation; inactive = no reads after selection
Label MET when amyloid nucleation score >= 0.9; otherwise NOT MET.

// known answers, use as guide
Substance	Category
MGVDLPIASLCSNCGEAGLG	NOT MET
TTDGNQAISVKLMTYLTRPL	NOT MET
DWKNYRMMHVEVWTACRILG	NOT MET

Hi, just wondering whether `VLDFQTSYMLPEFVRPGVGY` shows amyloid nucleation score of 0.9 or higher.
NOT MET

Determine whether measured amyloid nucleation score meets or exceeds 0.9 for `YIVPSKRIWFFGLSSNGDST`
NOT MET

Answer whether amyloid nucleation score of `MGSFKC` is greater than or equal to 0.9.
NOT MET

# check: amyloid nucleation score of `NFNGGCKFKGDYYRKA` is greater than or equal to 0.9
MET

Exam item: decide whether the reported amyloid nucleation score for `NCMPMEYNDGENAVMCGFNG` is at least 0.9.
NOT MET

Hi, just wondering whether `ALNGFVYALLAGPGQRLIKP` shows amyloid nucleation score of 0.9 or higher.
MET

---

assay: amyloid nucleation score (Sup35N fusion, yeast selection) (log enrichment); library NNK1; higher = more nucleation; inactive = no reads after selection
Quantity kind: amyloid nucleation score
Could you keep your reply to the number by itself?

Worked examples, 5 substances total:
Substance	amyloid nucleation score
RQNVQWR	1.86
YDMIWSSMLGFIERQAYMLP	-0.502
VTYVMCFAMEMMVGRCRWGG	-0.029
VCTCFSSWAWEVNF	3.28
LLRGSCFMCSLLDYALVKEG	3.84

For `YNKVDM` , what is its reported amyloid nucleation score?
-0.316

Quick one: amyloid nucleation score of `MLGSYLHVDSGNCTKVLRTV` ?
0.326

What measured amyloid nucleation score goes with `IFCVMVLSWSAVDPALSVA` ?
-1.03

Looking for the measured amyloid nucleation score of `SNSFYREVNWGNRT` , can you help?
0.216

Which amyloid nucleation score value belongs to `SCKLIDRAILICWRSPTALV` ?
0.109

Requested field: amyloid nucleation score. Item: `AAAFYWLN`
-1.2

Entry `RLVSRPRSLLQCYWGLVC` : reported amyloid nucleation score = ?
0.392

Give the measured amyloid nucleation score of `YYTVLLRS` .
-0.453

Name the recorded amyloid nucleation score for `VYASGWAQISVTGGTWLRGD` .
0.131

For the substance `WTYWGSCGGLWSKIFIYFLL` , what amyloid nucleation score is on record?
3.66

Which amyloid nucleation score is reported for this substance? `QISVGTYWFANWCGIILNQV`
1.99

// amyloid nucleation score lookup, key: `FKYYQAGSYNRKRMTQDGGS`
0.175

Fill in the blank: the reported amyloid nucleation score of `HYGSWLCELDVVLYCDCSVM` is ____.
0.021
